- System: HT-29
- assayText: In vitro cytotoxicity against HT-29 cell line
- Assay type: functional, Homo sapiens
Measured Cytotoxicity of individual entries

{"smilesText": "O=C1C=C(N2CC2)C(=O)C=C1N1CC1", "testSystem": "HT-29", "valueUnits": "nM", "Cytotoxicity": 5.1}
{"smilesText": "CCCC1=C(N2CC2)C(=O)C(C)=C(N2CC2)C1=O", "testSystem": "HT-29", "valueUnits": "nM", "Cytotoxicity": 5.5}
{"smilesText": "CCC1=C(N2CC2)C(=O)C(CC)=C(N2CC2)C1=O", "testSystem": "HT-29", "valueUnits": "nM", "Cytotoxicity": 21.8}
{"smilesText": "CC1=C(N2CC2)C(=O)C(C(C)C)=C(N2CC2)C1=O", "testSystem": "HT-29", "valueUnits": "nM", "Cytotoxicity": 33}
{"smilesText": "CCCC1=C(N2CC2)C(=O)C(CCC)=C(N2CC2)C1=O", "testSystem": "HT-29", "valueUnits": "nM", "Cytotoxicity": 58.2}
{"smilesText": "CCC1=C(N2CC2)C(=O)C(C)=C(N2CC2)C1=O", "testSystem": "HT-29", "valueUnits": "nM", "Cytotoxicity": 3.9}
{"smilesText": "CC(C)C1=C(N2CC2)C(=O)C(C(C)C)=C(N2CC2)C1=O", "testSystem": "HT-29", "valueUnits": "nM", "Cytotoxicity": 2740}
{"smilesText": "CC1=C(N2CC2)C(=O)C(C)=C(N2CC2)C1=O", "testSystem": "HT-29", "valueUnits": "nM", "Cytotoxicity": 3.4}

Origin of measurements: ChEMBL document CHEMBL1132246
